Molecular target: SARS-COV-2 3CLpro/Mpro protease (Severe acute respiratory syndrome coronavirus 2 (2019-nCoV) (SARS-CoV-2), UniProt P0DTD1)
Assay: Inhibitory effect on SARS-COV-2 3CLpro/Mpro protease by fluorescence resonance energy transfer
Type: biochemical
Conditions: activity intervals A-D, read-out: IC50 (nM), Inhibition on SARS-CoV-2 3CLpro/Mpro protease
Property: IC50; scope: individual compounds

Known results for compounds:
CO[C@H]1CN(C(=O)c2cncc3[nH]nc(Cl)c23)C[C@@H]1Nc1c(C(=O)N2C[C@@H](C)O[C@@H](C)C2)cc(Br)cc1[N+](=O)[O-] [Example 444] :: 10 to 50 nM
N#Cc1cncc(C(=O)N2CCC[C@@H](Nc3c(C(=O)N4CCCCC4)cc(Br)cc3[N+](=O)[O-])C2)c1 [Example 41] :: 10 to 50 nM

Now consider the entry below.
Ask: // IC50 lookup, key: CNc1cncc(C(=O)N[C@H]2CCOC[C@H]2Nc2c(C(=O)N3CCC[C@@H](C)C3)cc(Br)cc2[N+](=O)[O-])c1 [Example 226]
Result: 10 to 50 nM
